- Test system: NL-RLuc virus
- MEASUREMENT PROTOCOL: Inhibition of HIV replication: NL-RLuc reporter virus in MT-2 cells, luciferase readout
- Format: cell-based
- PROTOCOL CONDITIONS: Human immunodeficiency virus 1, MT2, 120 h, MT-2 cells infected with NL-RLuc virus, 5 days of incubation, 10% FBS, at least 2 experiments
Documented pEC50 across a set of molecules
Give only the number. pEC50 is defined as minus log10 of concentration in molar units.

Please review the following examples before continuing.
MOLECULE	pEC50
Cc1cc2nc3cn2c(c1[C@H](OC(C)(C)C)C(=O)O)N1CCC(C)(CCCCCOc2ccccc2CNC3=O)CC1 [Example 1]	7.15
Cc1cc2nc3cn2c(c1[C@H](OC(C)(C)C)C(=O)O)N1CCC(C)(CC1)OC/C=C/C[C@H](C)Oc1cc(F)ccc1-c1cccc-3c1 [Example 6]	8.30

Consider the additional molecule presented here.
Request: Identify the measured pEC50 of C=Cc1c(C)c([C@H](OC(C)(C)C)C(=O)O)c2n3cc(nc13)-c1cccc(c1)-c1cc(F)ccc1O[C@@H](C)CCCCOC1(C)CCN2CC1 [Example 38] for NL-RLuc virus.
Result: 7.03

Source: patent US9409922B2
